Cited source for all entries: paper PMC4917206

Biological target: HLA-A*0201 (Homo sapiens, UniProt P04439, D140Y/D185E/D98H/E176V/E277Q/G131W/G231S/I119V/I121R/I166T/I218V/L300P/L318F/N151K/N90K/P208A/P217A/Q86G/Q94H/R138H/R169H/T345S)
Construct: Soluble MHC was dissolved in PBS containing 0.5 mg/ml bovine γ-globulin; made in house
Assay type: binding
Categories are assigned from the measured FP binding score, percentage inhibition of tracer peptide binding, 4h using these intervals: LOW = under 80%, MEDIUM = from 80% up to 90%, HIGH = 90% and over

Sample answers from the record:
INSERT INTO results (substance, category) VALUES
  ('[3-PYRA]ILGFVFT[2-AOC] [G29]', 'LOW'),
  ('[THR-BZL][2-AOC]YSDFHFI [F141]', 'HIGH'),
  ('G[2-AOC]LGFVFT[PRG] [G26]', 'LOW'),
  ('N[2-AOC]LSTVLGV [N40]', 'LOW'),
  ('[3-THI]MLSTVLG[2-AOC] [N98]', 'MEDIUM');

Asked: Bin? FMYSDFHF[2-AOC] [F19]
Given back: MEDIUM

Asked: Consider [2-AOC]MLSTVLGV [N39] . To which FP binding score, percentage inhibition of tracer peptide binding, 4h class does it belong?
Given back: LOW

Asked: Dear colleague, I would appreciate it if you could identify the bin for [4-FPHE]MYSDFHFI [F105] and reply at your convenience.
Given back: MEDIUM

Asked: Class? Entry: [3-PYRA]MLSTVLGV [N43]
Given back: LOW

Asked: Returns: class label. Input: NMLSTVLG[CpALA] [N122]
Given back: LOW

Asked: Field: class (FP binding score, percentage inhibition of tracer peptide binding, 4h) — entry: [NLE]MLSTVLGV [N52]
Given back: LOW
